# Tested target: RNA triphosphatase TbCet1 (Trypanosoma brucei brucei)
# Sequence (Q582T2 1-253): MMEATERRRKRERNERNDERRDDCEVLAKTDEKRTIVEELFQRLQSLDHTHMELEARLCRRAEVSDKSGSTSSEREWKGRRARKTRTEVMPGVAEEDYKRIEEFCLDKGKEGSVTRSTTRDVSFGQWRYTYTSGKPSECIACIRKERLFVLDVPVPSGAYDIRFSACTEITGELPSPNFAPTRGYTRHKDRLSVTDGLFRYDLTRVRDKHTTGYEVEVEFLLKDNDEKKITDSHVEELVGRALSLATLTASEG
Threshold 4000 nM: IC50 strictly smaller gives fulfilled, otherwise not fulfilled.

INSERT INTO measurements (compound, category_label) VALUES
  ('Oc1cc(O)c2c(c1)O[C@H](c1cc(O)c(O)c(O)c1)[C@H](O)C2 [SKI 209444, Epigallocatechin]', 'not fulfilled'),
  ('O=c1c(-c2cc(O)c(O)c(O)c2)coc2cc(O)c(O)c(O)c12', 'fulfilled'),
  ('O=C(O[C@@H]1Cc2c(O)cc(O)cc2O[C@@H]1c1cc(O)c(O)c(O)c1-c1c([C@H]2Oc3cc(O)cc(O)c3C[C@H]2O)cc(O)c(O)c1O)c1cc(O)c(O)c(O)c1 [SKI 209412, 2′,2′-Bisepigallocatechin monogallate]', 'fulfilled'),
  ('NC[C@H](O)c1ccc(O)c(O)c1 [SKI 210170, Norepinephrine, reference compound]', 'fulfilled'),
  ('O=c1c(O)cccc2cc(O)c(O)c(O)c12', 'fulfilled'),
  ('O=c1c(O)c(-c2cc(O)c(O)c(O)c2)oc2cc(O)cc(O)c12', 'not fulfilled');

====

# Method: Solubility by laser nephelometry in assay conditions
# Condition label: laser nephelometry, assay conditions
Reported property: Sol. (solubility threshold)

INSERT INTO assay_data (compound, endpoint_value) VALUES
  ('O=C(O[C@@H]1Cc2c(O)cc(O)cc2O[C@@H]1c1ccc(O)c(O)c1)c1cc(O)c(O)c(O)c1 [SKI 209457, Epicatechin monogallate]', '> 100 µM'),
  ('Nc1cccc2c1C(=O)c1cccc(N)c1C2=O', '> 100 µM'),
  ('O=C(O[C@@H]1Cc2c(O)cc(O)cc2O[C@@H]1c1cc(O)c(O)c(O)c1)c1cc(O)c(O)c(O)c1 [SKI 209458, Epigallocatechin-3-monogallate]', '> 100 µM'),
  ('O=C(Oc1cc(O)cc2c1C[C@@H](OC(=O)c1cc(O)c(O)c(O)c1)[C@@H](c1cc(O)c(O)c(O)c1)O2)c1cc(O)c(O)c(O)c1 [SKI 209415, Epigallocatechin-3,5-digallate]', '> 100 µM');
